Values were extracted from patent US20120122896A1.

# Tested on: HA-tagged PA of FluA
# reportedConditions: read-out: IC50 (nM) of FluA-derived PB1 peptides (truncations)
measuredMetric: IC50 (nM)

> print(dat)
                      sequence  unit  valueobserved
1  MDVNPTLLFLK [Compound 1-11]    nM            900

* * *

# subjectOfTest: interaction between PB1 and PA (Influenza A virus, UniProt P03433)
# assayComment: biochemical
# Type: binding
# reportedConditions: prescreening
measuredMetric: Active in ELISA

> print(dat)
                              compoundstring                             subjectoftest   measuredmetric  valueobserved
 1  O=[N+]([O-])c1ccc(Sc2ncnc3nc[nH]c23)c2nonc12  interaction between PB1 and PA (Influenza A virus, UniProt P03433)  Active in ELISA             No
 2  O=[N+]([O-])c1ccc(Sc2cccc(Cl)c2)c2nonc12  interaction between PB1 and PA (Influenza A virus, UniProt P03433)  Active in ELISA            Yes
 3   Cc1ccc(Sc2ccc([N+](=O)[O-])c3nonc23)cc1  interaction between PB1 and PA (Influenza A virus, UniProt P03433)  Active in ELISA            Yes
 4  O=[N+]([O-])c1ccc(N2CCN(c3ccccc3)CC2)c2nonc12  interaction between PB1 and PA (Influenza A virus, UniProt P03433)  Active in ELISA             No
 5     O=[N+]([O-])c1ccc(SCc2ccccc2)c2nonc12  interaction between PB1 and PA (Influenza A virus, UniProt P03433)  Active in ELISA            Yes
 6  COc1ccc(Nc2ccc([N+](=O)[O-])c3nonc23)cc1  interaction between PB1 and PA (Influenza A virus, UniProt P03433)  Active in ELISA             No
 7  CCN(CC)CCCNc1ccc([N+](=O)[O-])c2no[n+]([O-])c12  interaction between PB1 and PA (Influenza A virus, UniProt P03433)  Active in ELISA             No
 8   O=[N+]([O-])c1ccc(Nc2cccc(F)c2)c2nonc12  interaction between PB1 and PA (Influenza A virus, UniProt P03433)  Active in ELISA             No
 9  O=C(OCCSc1ccc([N+](=O)[O-])c2nonc12)c1ccccc1  interaction between PB1 and PA (Influenza A virus, UniProt P03433)  Active in ELISA             No
10     O=[N+]([O-])c1c(NCc2ccccc2)ccc2nonc12  interaction between PB1 and PA (Influenza A virus, UniProt P03433)  Active in ELISA            Yes
11  Cc1ccc(CSc2ccc([N+](=O)[O-])c3nonc23)cc1  interaction between PB1 and PA (Influenza A virus, UniProt P03433)  Active in ELISA            Yes
12  O=C(OCCSc1ccc([N+](=O)[O-])c2nonc12)c1ccc(Cl)cc1Cl  interaction between PB1 and PA (Influenza A virus, UniProt P03433)  Active in ELISA             No
